Molecular target: P2X4 receptor (Homo sapiens, UniProt Q99571)
Construct: His tag (N); purchased MyBioSource, Inc (San Diego, CA, USA)
Sequence (Q99571 77-338): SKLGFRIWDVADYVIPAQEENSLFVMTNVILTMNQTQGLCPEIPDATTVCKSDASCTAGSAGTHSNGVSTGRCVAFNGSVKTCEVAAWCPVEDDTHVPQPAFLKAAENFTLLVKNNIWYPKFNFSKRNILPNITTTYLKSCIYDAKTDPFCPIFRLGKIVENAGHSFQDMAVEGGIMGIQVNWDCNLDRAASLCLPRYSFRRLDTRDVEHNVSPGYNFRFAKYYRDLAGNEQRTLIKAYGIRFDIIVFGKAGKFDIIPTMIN
Test: Surface plasmon resonance binding screening assay
Details: SPR Biacore T200, P2X4 immobilized on CM5 chip, 0.4-300 μM, 1:1 binding model; n.d. = not detectable; read-out: Kon (association rate)
metric: kon (M⁻¹ s⁻¹)
The response must be a number in M⁻¹ s⁻¹ with no trailing unit.

| compound | quantitative result |
| --- | --- |
| C=C(C)[C@@H]1CCC(C)=C[C@H]1c1c(O)cc(CCCCC)cc1O | 19200 |
| CCCCCc1cc2c(c(O)c1C(=O)O)[C@@H]1CC(C)=CC[C@H]1C(C)(C)O2 [Δ^8-THCA-A, Δ^8-trans-tetrahydrocannabinolic acid A] | 1060 |
| CCCCCc1cc2c(c(O)c1C(=O)O)[C@@H]1C=C(C)CC[C@H]1C(C)(C)O2 [THCA-A, Δ^9-tetrahydrocannabinolic acid A] | 866 |
| CCCCCc1cc(O)c(C/C=C(\C)CCC=C(C)C)c(O)c1C(=O)O | 824 |

// field: kon; key: CCCCCc1cc(O)c2c(c1)OC(C)(C)C1CCC(CO)=CC21 (centres unmarked) ; value = 11800

Per the records, this compound ( C=C(C)c1ccc(C)cc1-c1c(O)cc(CCCCC)cc1O ) has kon equal to 1520
